Test system: K-562 leukemia
Assay: NCI tumour cell line growth inhibition, 48 h
Measured attribute: TGI (µM)
// note: answer is a bare numeric in µM

For orientation, consider the following solved cases.
| Molecule | TGI / µM |
| --- | --- |
| OC(C1=C/C(=C\c2ccncc2)c2ccccc21)c1ccncc1 (stereo not given) | 28.1 |
| CN(C)Cc1cc(C(C)(C)C)cc(CNC2CCCCC2)c1O | 76.2 |

The molecule identified as "COc1cc(NC(=O)c2cc(OC)c3ccn(C)c3c2)cc2c1C[C@]1(C)CC[C@@H](O)C(C)(C)[C@H]1O2" registered its TGI at 39.3

The molecule identified as "OCCN1CN(c2nc(N3CN(CCO)C3)nc(N3CN(CCO)C3)n2)C1" registered its TGI at 87.3

The molecule identified as "COc1cc(CCNC2=CC(=O)c3cccnc3C2=O)ccc1O" registered its TGI at 2.15

The molecule identified as "COc1ccc2c(c1)c(=O)c1c(NCCCN(C)CCCNc3ccc4c(=O)n(CCN(C)C)c(=O)n5c6ccc(OC)cc6c(=O)c3c45)ccc3c(=O)n(CCN(C)C)c(=O)n2c31" registered its TGI at 1.11
